# assayDetails: Human HepG2 cell viability assay in 384 well format
# Type: toxicity, cell-based
# Set-up: dose 125 nL, time 70.5 hour; concentration not given beside the values
# conditionParameters: HepG2 cells, read-out: Inhibition
propertyLabel: cytotoxicity at 70.5 h (%)
Value expressed in %; do not type the unit.

// solved cases for cytotoxicity at 70.5 h follow
Fc1cc(CCNc2ccc3nccn3n2)c2c(c1)COCO2	5.74
CN(CCO)Cc1cc(Cl)ccc1OCC(O)CN1CCCCCC1 (stereo not drawn)	-14.1
CC(CNC(=O)c1ccon1)Oc1cccc(Br)c1 (stereo not drawn)	4.03
CN(C)c1nccc(C2CCN(C(=O)CO)CC2)n1	13.9

Short answer for `c1cnc(NCc2nnn3c2CN(Cc2cccs2)CCC3)nc1` : cytotoxicity at 70.5 h was -115

Short answer for `COCCNC(=O)c1ccc2c(=O)n3c(nc2c1)CCCCC3` : cytotoxicity at 70.5 h was -22.9

Short answer for `O=C(NCCNc1cncc(Br)c1)c1ccc(O)cc1` : cytotoxicity at 70.5 h was -8.4

----------
# assayDetails: Human HepG2 cell viability assay in 384 well format
# Assay type: toxicity, cell-based
# Parameters: dose 125 nL, time 70.5 hour; concentration not given beside the values
# conditionParameters: HepG2 cells, read-out: Inhibition
propertyLabel: cytotoxicity at 70.5 h (%)
Value expressed in %; do not type the unit.

// solved cases for cytotoxicity at 70.5 h follow
O=C(CC1CCCC1)N1CCN(c2ccc(-n3cncn3)nn2)CC1	-7.71
CS(=O)(=O)N1C[C@@H]2CC[C@H](C1)N(CCC(=O)NCc1ccccc1F)C2	21.2

Next molecule, cytotoxicity at 70.5 h to be filled in.
Short answer for O=C(NCCn1ccnc1)N1CCCC1c1ccncc1 (stereo not drawn) : cytotoxicity at 70.5 h was 1.26

----------
# assayDetails: Human HepG2 cell viability assay in 384 well format
# Type: toxicity, cell-based
# Parameters: dose 125 nL, time 70.5 hour; concentration not given beside the values
# conditionParameters: HepG2 cells, read-out: Inhibition
propertyLabel: cytotoxicity at 70.5 h
Lab note: write values as number then unit, every time.

// solved cases for cytotoxicity at 70.5 h follow
Cc1nnsc1CN1CCCC1c1nc(-c2ccccc2)no1 (stereo not drawn)	-3.77%
COCCN1CCCC2(CCN(c3cc(C)c(C#N)c(C)n3)C2)C1=O (stereo not drawn)	14.9%
CCc1cnc(CN(C)C2CCN(CCCS(=O)(=O)NC)C2)o1 (stereo not drawn)	2.84%
CCC(C)(CC(=O)OC)NCc1cc(C)on1 (stereo not drawn)	-11%
O=C(Nc1ccccc1)N1CCn2c(nnc2C2CCNCC2)C1	-9.29%

Short answer for c1ccc(N2CCCC3(CCN(Cc4ccsc4)C3)C2)nc1 (stereo not drawn) : cytotoxicity at 70.5 h was -7.47%

Short answer for CC(OCC1CC1)C(=O)N1CCCN(c2nc3ccccc3[nH]2)CC1 (stereo not drawn) : cytotoxicity at 70.5 h was -3.86%

Short answer for Cc1csc2c(N3CCNC(C(=O)NCc4cccnc4)C3)ncnc12 (stereo not drawn) : cytotoxicity at 70.5 h was 18.9%

Short answer for `CN(C)c1ncc(NC(=O)c2cccc(Nc3cnn(C)c3)c2)cn1` : cytotoxicity at 70.5 h was 2.52%

Short answer for `CCN(CC(=O)N(C)C)C(=O)C(C)(C)c1ccc2c(c1)OCCO2` : cytotoxicity at 70.5 h was -8.05%

Short answer for CCC1CN(C)c2ccccc2CN1C(=O)CCn1cncn1 (stereo not drawn) : cytotoxicity at 70.5 h was -7.82%

Short answer for `CCn1c(N)nc2cc(C(=O)N3CCN(c4nccs4)CC3)cnc21` : cytotoxicity at 70.5 h was -6.84%

The measurements presented in this section are drawn from ChEMBL document CHEMBL3507680.
